# SYSTEM TESTED: Kappa-type opioid receptor (Homo sapiens, UniProt P41145)
# Sequence (P41145 whole entry): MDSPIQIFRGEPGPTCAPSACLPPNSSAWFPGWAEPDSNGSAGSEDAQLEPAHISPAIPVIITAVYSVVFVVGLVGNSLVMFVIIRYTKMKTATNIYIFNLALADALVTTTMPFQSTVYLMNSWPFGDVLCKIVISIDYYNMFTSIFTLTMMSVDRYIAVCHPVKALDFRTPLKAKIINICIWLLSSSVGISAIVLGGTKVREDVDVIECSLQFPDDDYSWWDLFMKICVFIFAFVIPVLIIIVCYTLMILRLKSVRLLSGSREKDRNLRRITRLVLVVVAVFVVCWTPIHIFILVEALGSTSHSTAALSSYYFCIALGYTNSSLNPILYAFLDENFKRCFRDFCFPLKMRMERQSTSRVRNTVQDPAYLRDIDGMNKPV
# EXPERIMENT SUMMARY: Displacement of [3H]-U69593 from human kappa opiod receptor expressed in CHO cells at 10 uM incubated for 60 mins by liquid scintillation counting method relative to control
# Assay type: cell-based
Assignment: determine reported inhibition for the given compounds.
Reply with just the number (in %).

Report inhibition for Cc1cc(C)cc(C2CCCN2Cc2ccc(Oc3ccc4c(=O)[nH]oc4c3)c(Cl)c2)c1 (centres undefined) please.
69.8

Report inhibition for O=c1[nH]oc2cc(Oc3ccc(CN4CCCC4c4ccc(Cl)cc4)cc3)ccc12 (centres undefined) please.
83.5

Report inhibition for COc1ccc(C2CCCN2Cc2ccc(Oc3ccc4c(=O)[nH]oc4c3F)cc2)cc1 (centres undefined) please.
19.1

Report inhibition for COc1ccc(C2CCCN2Cc2ccc(Oc3ccc4c(=O)[nH]oc4c3)cc2)cc1 (centres undefined) please.
66.9
